Tested on: NCI-H1975
Assay: relative viability (nuclei count vs DMSO), 5 days (fraction); higher = more cells survive
Settings: first compound 0.04 µM
Our labelling divides records by relative viability into ranges: lo (below 0.3), med (0.3 to below 0.8), hi (0.8 or more)

State the band of C[C@@H]1CN(CC(=O)Nc2ccc3c(c2)Cc2cccc(-c4cc(=O)cc(N5CCOCC5)o4)c2S3)C[C@H](C)O1 + C[C@@H](Oc1cc(-c2cnn(C3CCNCC3)c2)cnc1N)c1c(Cl)ccc(F)c1Cl [Crizotinib] (partner 1 µM)
hi

State the band of Clc1ccc(Nc2nnc(Cc3ccncc3)c3ccccc23)cc1 [Vatalanib] + Cc1cc(Nc2cc(N3CCN(C)CC3)nc(Sc3ccc(NC(=O)C4CC4)cc3)n2)n[nH]1 [Tozasertib] (partner 0.1 µM)
hi

State the band of C[C@@H]1CN(CC(=O)Nc2ccc3c(c2)Cc2cccc(-c4cc(=O)cc(N5CCOCC5)o4)c2S3)C[C@H](C)O1 + Nc1nc2[nH]cc(CCc3ccc(C(=O)N[C@@H](CCC(=O)O)C(=O)O)cc3)c2c(=O)[nH]1 [Pemetrexed] (partner 0.2 µM)
lo

State the band of Clc1ccc(Nc2nnc(Cc3ccncc3)c3ccccc23)cc1 [Vatalanib] + CS(=O)(=O)N1CCN(Cc2cc3nc(-c4cccc5[nH]ncc45)nc(N4CCOCC4)c3s2)CC1 [Pictilisib] (partner 1 µM)
lo

Further cases:
State the band of C[C@@H]1CN(CC(=O)Nc2ccc3c(c2)Cc2cccc(-c4cc(=O)cc(N5CCOCC5)o4)c2S3)C[C@H](C)O1 + COc1cccc2cc(-c3nc([C@H]4CC[C@H](C(=O)O)CC4)n4ncnc(N)c34)[nH]c12 [OSI-027] (partner 0.5 µM)
med

State the band of C[C@@H]1CN(CC(=O)Nc2ccc3c(c2)Cc2cccc(-c4cc(=O)cc(N5CCOCC5)o4)c2S3)C[C@H](C)O1 + C[C@]1(O)C[C@@H](c2nc(-c3ccc4ccc(-c5ccccc5)nc4c3)c3c(N)nccn32)C1 [Linsitinib] (partner 1 µM)
hi

State the band of Clc1ccc(Nc2nnc(Cc3ccncc3)c3ccccc23)cc1 [Vatalanib] + CCNC(=O)c1noc(-c2cc(C(C)C)c(O)cc2O)c1-c1ccc(CN2CCOCC2)cc1 [Luminespib] (partner 0.01 µM)
lo

State the band of Clc1ccc(Nc2nnc(Cc3ccncc3)c3ccccc23)cc1 [Vatalanib] + Cc1nc(NC(=O)N2CCC[C@H]2C(N)=O)sc1-c1ccnc(C(C)(C)C(F)(F)F)c1 [Alpelisib] (partner 2 µM)
med

Data credit: the supplement of paper PMC10307832
